Assay: insulin gene promoter stimulation in islet cells – imaging, TRM-6 cells (human fetal islet line), eGFP reporter, cell count, primary screen (AID 1296;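 note: cells counted after 48 h compound exposure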)
Settings: at 2 µM; measured here: cell count (toxicity)
Screen size: about 130,000 compounds; about 1,000 (0.77%) were called active. About 1% were inconclusive and are not listed. The full list was thinned out, with actives kept by preference.
normalized cell count: recorded values
# value in %; strip the unit string

Below, 10 compounds whose answers are already recorded.
# COMPOUND, UNITS OF MEASURE, QUANTITATIVE READOUT
records = [
    ("CCCn1c(=S)[nH]c2ccc(C(F)(F)F)cc21", "%", 78),
    ("O=C(Nc1ccccc1)c1ccc2nsnc2c1", "%", 111),
    ("COc1ccc(C)cc1NC(=O)CSc1ccc(Cl)cc1", "%", 93.7),
    ("COC(=O)c1cc(OC)c(OC)cc1NC(=O)CSc1ccc(C)cc1", "%", 108),
    ("CC(C)CCNC(=O)CC1C(=O)N(Cc2ccccc2)C(C)c2nc3ccccc3n21 (configuration not stated)", "%", 118),
    ("CC1C/C(=N/NC(=O)c2cccs2)CC(C)(C)C1 (configuration not stated)", "%", 112),
    ("Cc1cc(C)cc(NC(=O)CSc2ccccc2)c1", "%", 53.5),
    ("CC(O)c1nc2ccccc2n1Cc1ccc([N+](=O)[O-])cc1 (configuration not stated)", "%", 149),
    ("OC1CSc2nc3ccccc3n2C1 (configuration not stated)", "%", 81.8),
    ("CC1=NN(C(=O)Cc2ccc(C)cc2)C(O)(c2cccnc2)C1 (configuration not stated)", "%", 170),
]

Data point: CS(=O)(=O)N(Cc1ccccc1)c1ccc(C(=O)NN=C2CCCCCC2)cc1 ; normalized cell count = 150

Briefly, normalized cell count measured for COc1ccc(OCC(=O)N2CCN(C(=O)c3cccs3)CC2)cc1 : 125
